System: CCD-18Co
procedure_details: Cell-based assay, anti-proliferative activity (Cell Counting Kit-8, 72 hours)
experimental_parameters: Homo sapiens; CCD-18Co cells, 72 hours, Cell Counting Kit-8; read-out: IC50 (μM) CCD-18Co
This section presents molecules with their documented IC50 values.
metric_name: IC50 (µM)

molecule=COc1cc(OCCCN(C)C)c(-c2cn3ccc(N4CCN(S(=O)(=O)C5CCCC5)CC4)nc3n2)cc1Cl reported_measurement=6.2
molecule=COc1cc(OC)c(-c2cn3ccc(N4CCN(c5ccnc(N6CCOCC6)n5)CC4)cc3n2)cc1Cl reported_measurement=1.3
molecule="COc1cc(OC)c(-c2cn3ccc(N4CCNC(CO)C4)cc3n2)cc1Cl (centres unmarked)" reported_measurement=6.7
molecule=COc1cc(OC)c(-c2cn3ccc(N[C@H]4CC[C@H](CN5CCN(S(C)(=O)=O)CC5)CC4)cc3n2)cc1Cl reported_measurement=0.72
molecule=COc1cc(OC)c(-c2cn3cc(NCCN)c(N4CCN(S(=O)(=O)C5CC5)CC4)nc3n2)cc1Cl reported_measurement=10
molecule=COc1cc(OC)c(-c2cn3ccc(N4CC[C@H](NCc5ccc(C(F)(F)F)cc5)C4)cc3n2)cc1Cl reported_measurement=0.86
molecule=COc1cc(OC)c(-c2cn3ccc(N4CCN(c5cccnc5)CC4)cc3n2)cc1Cl reported_measurement=0.79
molecule=COc1cc(OC)c(-c2cn3ccc(NC(=O)[C@@H]4CCCN4C)cc3n2)cc1Cl reported_measurement=1.4

###

target_under_test: SUV39H2 (Homo sapiens (Human), UniProt Q9H5I1)
Sequence (Q9H5I1 whole entry): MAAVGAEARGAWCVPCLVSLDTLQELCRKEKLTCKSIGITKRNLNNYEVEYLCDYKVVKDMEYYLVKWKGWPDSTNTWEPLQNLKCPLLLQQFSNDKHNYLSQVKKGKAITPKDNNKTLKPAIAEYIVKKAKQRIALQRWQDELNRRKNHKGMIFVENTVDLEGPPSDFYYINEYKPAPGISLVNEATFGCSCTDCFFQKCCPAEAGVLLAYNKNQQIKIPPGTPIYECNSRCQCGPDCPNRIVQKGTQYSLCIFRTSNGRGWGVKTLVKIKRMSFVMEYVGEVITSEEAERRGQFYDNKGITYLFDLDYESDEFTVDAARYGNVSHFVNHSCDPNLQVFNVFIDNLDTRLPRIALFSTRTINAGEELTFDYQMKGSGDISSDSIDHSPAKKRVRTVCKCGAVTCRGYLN
experimental_parameters: read-out: IC50 (μM) Suv 39H2 assay; enzyme assay
Structures can show the parent of a compound that is named as a salt.
Bucketed by reported IC50, buckets being category 1: < 0.007 µM; category 2: ≥ 0.007 µM and < 0.03 µM; category 3: ≥ 0.03 µM

molecule=COc1cc(OC)c(-c2cn3ccc(N4CC[C@H](NCc5ccccn5)C4)cc3n2)cc1Cl assigned_class="category 2"
molecule=COc1cc(OC)c(-c2cn3ccc(N4CCCN(S(C)(=O)=O)CC4)cc3n2)cc1Cl assigned_class="category 1"
molecule="COc1cc(OC)c(-c2cn3ccc(N4CCC(NC(=O)CCN)C4)cc3n2)cc1Cl (centres unmarked)" assigned_class="category 1"
molecule=COc1cc(OC)c(-c2cn3cc(NCCNC(C)=O)c(N4CCOCC4)cc3n2)cc1Cl assigned_class="category 3"
molecule=COc1cc(OC)c(-c2cn3ccc(N4CCN(P(=O)(OC)OC)CC4)cc3n2)cc1Cl assigned_class="category 1"
molecule=CCc1cc(OC)c(Cl)cc1-c1cn2ccc(N3CCNCC3)cc2n1 assigned_class="category 3"
molecule="COc1cc(OC)c(-c2cn3ccc(N(C)C)cc3n2)cc1Cl [Example 22, hydrobromide]" assigned_class="category 1"
molecule=COc1cc(OCC2CC2)c(-c2cn3ccc(N4CCOCC4)cc3n2)cc1Cl assigned_class="category 2"
molecule=COc1cc(OC)c(-c2cn3cc(Br)c(N4CCNCC4)nc3n2)cc1Cl assigned_class="category 2"
molecule=COc1cc(OC)c(-c2cn3ccc(-c4ccc(NCc5ncc[nH]5)cc4)cc3n2)cc1Cl assigned_class="category 2"
molecule=COc1cc(OC)c(-c2cn3ccc(C4=CCN(CCF)CC4)cc3n2)cc1Cl assigned_class="category 3"
molecule=COc1cc(OC)c(-c2cn3ccc(-c4ccc(C(=O)NCC5CCNCC5)cc4)cc3n2)cc1Cl assigned_class="category 3"
molecule=COc1cc(OC)c(-c2cn3ccc(-c4ccc(C(=O)NC5CCNCC5)cc4)cc3n2)cc1Cl assigned_class="category 3"
molecule=COc1cc(OC)c(-c2cn3ccc(N4CCN(S(=O)(=O)N(C)C)CC4)nc3n2)cc1Cl assigned_class="category 2"
molecule=COc1cc(OCCCN(C)C)c(-c2cn3ccc(N4CCN(S(=O)(=O)C5CC5)CC4)cc3n2)cc1Cl assigned_class="category 2"
